test system: acetic acid-induced writhing; assay: inhibition of acetic acid-induced writhing counts in mice (analgesic effect); assay type: in vivo; conditions: Mus musculus, read-out: ED50 (50% Effective dose)
Under this convention, fulfilled denotes ED50 strictly below 2 mg/kg and not fulfilled denotes ED50 at or above 2 mg/kg.

Please review the entries below; each comes with its answer.
MOLECULE: Cl.O=C(c1ccco1)N1CCN(CCCc2ccccc2)CC1
TARGET_SYSTEM: acetic acid-induced writhing
LABEL_CLASS: not fulfilled

MOLECULE: C[C@@H]1CN(CCCc2ccccc2)[C@@H](C)CN1C(=O)c1ccco1.Cl (relative stereo)
TARGET_SYSTEM: acetic acid-induced writhing
LABEL_CLASS: fulfilled

MOLECULE: Cc1cccc(CCCN2CCN(C(=O)c3ccco3)CC2)c1.Cl
TARGET_SYSTEM: acetic acid-induced writhing
LABEL_CLASS: not fulfilled

MOLECULE: Cc1occc1C(=O)N1CCN(CCCc2ccccc2)CC1.Cl
TARGET_SYSTEM: acetic acid-induced writhing
LABEL_CLASS: fulfilled

MOLECULE: CC1CN(C(=O)c2ccco2)CCN1CCCc1ccccc1 (stereo not drawn)
TARGET_SYSTEM: acetic acid-induced writhing
LABEL_CLASS: not fulfilled

MOLECULE: CCOc1ccc(CCCN2CCN(C(=O)c3ccco3)CC2)cc1.Cl
TARGET_SYSTEM: acetic acid-induced writhing
LABEL_CLASS: not fulfilled

MOLECULE: Cc1ccccc1CCCN1CCN(C(=O)c2ccco2)CC1.Cl
TARGET_SYSTEM: acetic acid-induced writhing
LABEL_CLASS: not fulfilled

MOLECULE: Cc1cc(C(=O)N2CCN(CCCc3ccccc3)CC2)co1.Cl
TARGET_SYSTEM: acetic acid-induced writhing
LABEL_CLASS: not fulfilled

Please check: ED50 for CC1CN(CCCc2ccccc2)CCN1C(=O)c1ccco1.Cl (stereo not drawn) , strictly under 2 mg/kg or not?
not fulfilled

Report whether reported ED50 is lower than 2 mg/kg (strictly) for Cc1cccc(CCCN2C[C@@H](C)N(C(=O)c3ccco3)C[C@@H]2C)c1.Cl (relative stereo)
fulfilled

Please let me know if Cc1ccccc1CCCN1C[C@@H](C)N(C(=O)c2ccco2)C[C@@H]1C.Cl (relative stereo) shows ED50 below 2 mg/kg.
fulfilled

Record `CC1(C)CN(CCCc2ccccc2)CCN1C(=O)c1ccco1.Cl` : is its ED50 strictly below 2 mg/kg?
not fulfilled
